Assay: Terminal half life in human
Assay type: ADME, organism-based
Settings: in vivo, read-out: beta t1/2 (converted)
observed-property: half-life (h)
Entry rule: numbers only, all in h.

Input: Fill in half-life for record COc1cc2ncnc(Nc3ccc(F)c(Cl)c3)c2cc1OCCCN1CCOCC1
Output: 28

----------
Documented pKa across a set of compounds
Experiment: physchem
The reply should be a number, written without any unit.

Here are 3 compounds together with their reported answers.
>>> print(df.to_string())
                                   compound  reported
0  COc1cc2ncnc(Nc3cccc(Cl)c3F)c2cc1OCC1CCN(C)CC1       9.3
1  COc1cc2ncnc(Nc3cccc(Cl)c3F)c2cc1OC1CCN(CC(N)=O)CC1       6.7
2  COCCN1CCC(Oc2cc3c(Nc4cccc(Cl)c4F)ncnc3cc2OC)CC1       8.1

Input: Fill in pKa for record COc1cc2ncnc(Nc3cc(Cl)ccc3F)c2cc1OC1CCN(CC(N)=O)CC1
Output: 6.7

Input: Fill in pKa for record COc1cc2ncnc(Nc3cc(Cl)ccc3F)c2cc1OC1CCN(C)CC1
Output: 8.8

Input: Fill in pKa for record COc1cc2c(Nc3ccc(Br)cc3F)ncnc2cc1OCC1CCN(C)CC1 [VANDETANIB]
Output: 9.3

Input: Fill in pKa for record COc1cc2ncnc(Nc3cc(Cl)ccc3F)c2cc1OCC1CCN(C)CC1
Output: 9.3

Input: Fill in pKa for record COc1cc2ncnc(Nc3ccc(F)c(Cl)c3)c2cc1OC1CCN(C)CC1
Output: 8.8

----------
Experiment: Clearance in Wistar rat at 2 mg/kg, iv and 5 mg/kg, po
Type: ADME, organism-based
Conditions: in vivo
observed-property: clearance (mL/min/kg)
Entry rule: numbers only, all in mL/min/kg.

Here are 3 compounds together with their reported answers.
>>> df
                           structure_smiles  observed_property       unit  reported
0  COc1cc2ncnc(Nc3cccc(Cl)c3F)c2cc1OC1CCN(S(C)(=O)=O)CC1          clearance  mL/min/kg        13
1  COc1cc2ncnc(Nc3cccc(Cl)c3F)c2cc1OC1CCN(CC(N)=O)CC1          clearance  mL/min/kg        16
2  COCCN1CCC(Oc2cc3c(Nc4cccc(Cl)c4F)ncnc3cc2OC)CC1          clearance  mL/min/kg        11

Input: Fill in clearance for record COc1cc2ncnc(Nc3cccc(Cl)c3F)c2cc1OC1CCN(C)CC1
Output: 129

----------
Experiment: Volume of distribution in Wistar rat at 2 mg/kg, iv and 10 mg/kg, po
Format: ADME, organism-based
Conditions: in vivo, read-out: Vdss
observed-property: Vd (L/kg)
Entry rule: numbers only, all in L/kg.

Here are 2 molecules together with their reported answers.
In [3]: df
Out[3]:
                           structure_smiles  reported
0  COc1cc2ncnc(Nc3cc(Cl)ccc3F)c2cc1OCCCN1CCOCC1       3.5
1  COc1cc2ncnc(Nc3ccc(F)c(Cl)c3)c2cc1OCCCN1CCOCC1       5.8

Input: Fill in Vd for record COc1cc2ncnc(Nc3cccc(Cl)c3F)c2cc1OCCCN1CCOCC1
Output: 4.3
